molecular target: Recombinant TryR from T. brucei (Trypanosoma brucei brucei, UniProt P39051); test: DTNB-coupled colourimetric TryR screening/potency assay
Sequence (P39051 whole entry): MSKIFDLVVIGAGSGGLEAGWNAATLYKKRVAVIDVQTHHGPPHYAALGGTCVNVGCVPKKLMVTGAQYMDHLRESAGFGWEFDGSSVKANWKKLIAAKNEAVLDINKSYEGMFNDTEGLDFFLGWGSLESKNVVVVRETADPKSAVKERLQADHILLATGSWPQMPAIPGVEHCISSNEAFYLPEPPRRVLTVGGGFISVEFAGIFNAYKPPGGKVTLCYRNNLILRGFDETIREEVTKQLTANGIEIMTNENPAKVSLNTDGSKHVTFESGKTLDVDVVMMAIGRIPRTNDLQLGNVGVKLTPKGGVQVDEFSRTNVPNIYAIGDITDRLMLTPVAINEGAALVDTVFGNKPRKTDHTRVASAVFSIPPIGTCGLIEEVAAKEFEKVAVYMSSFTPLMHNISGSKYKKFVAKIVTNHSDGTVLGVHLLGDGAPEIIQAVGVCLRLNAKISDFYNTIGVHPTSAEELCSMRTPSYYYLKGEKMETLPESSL
pIC50: −log10 of the molar value.
MEASURED QUANTITY: pIC50

Below, 4 compounds whose answers are already recorded.
>  <CHEM SMILES>
Cc1ccc(-c2cc(C(=O)NCCN(C)C)c3cc(Br)ccc3n2)o1

>  <EXPERIMENTAL SYSTEM>
Recombinant TryR from T. brucei (Trypanosoma brucei brucei, UniProt P39051)

>  <pIC50>
5.77

$$$$
>  <CHEM SMILES>
Cc1ccc(-c2cc(C(=O)NCc3ccccn3)c3cc(Br)ccc3n2)o1

>  <EXPERIMENTAL SYSTEM>
Recombinant TryR from T. brucei (Trypanosoma brucei brucei, UniProt P39051)

>  <pIC50>
5.33

$$$$
>  <CHEM SMILES>
Cc1ccc(-c2cc(C(=O)NCCN(C)C)c3ccc(Br)cc3n2)o1

>  <EXPERIMENTAL SYSTEM>
Recombinant TryR from T. brucei (Trypanosoma brucei brucei, UniProt P39051)

>  <pIC50>
5.24

$$$$
>  <CHEM SMILES>
Cc1ccc(-c2cc(C(=O)NCC[N+](C)(C)C)c3cc(Br)ccc3n2)o1

>  <EXPERIMENTAL SYSTEM>
Recombinant TryR from T. brucei (Trypanosoma brucei brucei, UniProt P39051)

>  <pIC50>
5.92

$$$$

A = CNCCNC(=O)c1cc(-c2ccc(C)o2)nc2ccc(Br)cc12
B = Cc1ccc(-c2cc(C(=O)NCCN(C)C)c3cccc(Br)c3n2)o1
C = Cc1ccc(-c2cc(C(=O)NCCN(C)C)c3ccccc3n2)o1
*Q* Hey, can you sort those compounds up there by pIC50, smallest first? List each label, following the requested order.
*A* C, B, A
(C: 4.84, B: 5.24, A: 5.96)

###

molecular target: UniProtKB P39051
pKi: −log10 of the molar value.
MEASURED QUANTITY: pKi

>  <CHEM SMILES>
Cc1ccc(-c2cc(C(=O)NCc3ccccn3)c3cc(Br)ccc3n2)o1

>  <EXPERIMENTAL SYSTEM>
UniProtKB P39051

>  <pKi>
5.70

$$$$

a = Cc1ccc(-c2cc(C(=O)NCCN(C)C)c3cc(Br)ccc3n2)o1
b = Cc1ccc(-c2cc(C(=O)NCCN3CCOCC3)c3cc(Br)ccc3n2)o1
*Q* Lab note: record which item had the higher pKi, a or b . Returns: label corresponding to the selected item.
*A* a

###

system: bloodstream form T. brucei brucei single marker; assay: Trypanosome growth assay; type: cell-based; settings: Trypanosoma brucei, 73 h, read-out: EC50 Parasite
MEASURED QUANTITY: EC50 (µM)
The response must be a number in µM with no trailing unit.

These solved cases illustrate the format of a correct answer.
>  <CHEM SMILES>
CNCCNC(=O)c1cc(-c2ccc(C)o2)nc2ccc(Br)cc12

>  <SCALE UNIT>
µM

>  <EC50>
6

$$$$
>  <CHEM SMILES>
Cc1ccc(-c2cc(C(=O)NCCN(C)C)c3cc(Br)ccc3n2)o1

>  <SCALE UNIT>
µM

>  <EC50>
10.3

$$$$
>  <CHEM SMILES>
Cc1ccc(-c2cc(C(=O)NCCN(C)C)c3cccc(Br)c3n2)o1

>  <SCALE UNIT>
µM

>  <EC50>
19.2

$$$$
>  <CHEM SMILES>
Cc1ccc(-c2cc(C(=O)NCc3ccccn3)c3cc(Br)ccc3n2)o1

>  <SCALE UNIT>
µM

>  <EC50>
18.7

$$$$
>  <CHEM SMILES>
Cc1ccc(-c2cc(C(=O)NCCN(C)C)c3ccccc3n2)o1

>  <SCALE UNIT>
µM

>  <EC50>
32.1

$$$$

As a next step, examine the compound that follows.
*Q* // query EC50 value for entry "Cc1ccc(-c2cc(C(=O)NCCN3CCOCC3)c3cc(Br)ccc3n2)o1"
*A* 25.6

###

molecular target: Recombinant TryR from T. brucei (Trypanosoma brucei brucei, UniProt P39051); experiment: DTNB-coupled colourimetric TryR screening/potency assay
pIC50: −log10 of the molar value.
MEASURED QUANTITY: pIC50

>  <MOLECULE>
CN(C)CCNC(=O)c1cc(-c2ccco2)nc2ccc(Br)cc12 [Compound 20]

>  <pIC50>
4.49

$$$$

A = Cc1ccc(-c2cc(C(=O)NCCN3CCOCC3)c3cc(Br)ccc3n2)o1 [Compound 4]
B = Cc1ccc(-c2cc(C(=O)NCc3ccccn3)c3ccccc3n2)o1 [Compound 11]
*Q* Of the two listed items, which has the higher pIC50? First: A Second: B Response format: the label of the selected entry.
*A* A

###

target: Recombinant TryR from T. brucei (Trypanosoma brucei brucei, UniProt P39051); test: DTNB-coupled colourimetric TryR screening/potency assay
pIC50: −log10 of the molar value.
MEASURED QUANTITY: pIC50

>  <MOLECULE>
Cc1ccc(-c2cc(C(=O)NCc3ccccc3)c3cc(Br)ccc3n2)o1 [Compound 15]

>  <pIC50>
< 4.00

$$$$
>  <MOLECULE>
Cc1ccc(-c2cc(C(=O)NCCc3ccccc3)c3cc(Br)ccc3n2)o1 [Compound 25]

>  <pIC50>
< 4.00

$$$$

Then there is this molecule:
*Q* If you can, please state the reported pIC50 value of Cc1ccc(-c2cc(C(=O)NCCN(C)C)c3cc(Br)ccc3n2)s1 [Compound 22] .
*A* < 4.00
